# assayed_system: T1, human PRLR (Biacore antigen) (human, UniProt P16471 25-234, limits assumed)
# T1 construct: The construct injected over captured antibody is not described (a soluble form is likely); also called huPRLR
# T1 sequence: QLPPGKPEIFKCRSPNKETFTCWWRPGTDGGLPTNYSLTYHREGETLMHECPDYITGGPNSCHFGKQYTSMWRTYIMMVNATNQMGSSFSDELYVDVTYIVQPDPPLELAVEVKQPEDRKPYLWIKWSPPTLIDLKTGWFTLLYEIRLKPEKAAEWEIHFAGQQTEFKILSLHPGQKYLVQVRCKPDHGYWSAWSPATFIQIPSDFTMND
# assay_procedure: SPR simultaneous binding; PRLR held by surface mAb Ab48
# Description: Running buffer was HBS-EP+ (10 mM Hepes, pH7.4, 150 mM NaCl, 3 mM EDTA, 0.05% surfactant). Assay was performed at 12° C. using Biacore T200 and CM5 sensor chips with anti-human IgG (Pierce) amine-coupled in all 4 flow cells to ˜2000 RU. Separate test mAbs were captured in flowcells 2, 3 & 4 (flowcell 1 was reference, no test mAb). All 4 flowcells were then blocked by injection with isotype control mAb at 50 ug/ml. […]
observed_property: solution mAb binding, % of PRLR binding (%)
Give just the numeric value; % need not be written.

I would be grateful if you could share the reported solution mAb binding, % of PRLR binding for Ab49 (antibody, human IgG1, kappa, V domains shown, humanized from Ab8; G1; also called Ab3 HC.1a and Ab3 LC.1b) VH: EVQLVQSGAEVKKPGASVKVSCKASGYTFTDYNIHWVRQAPGQGLEWIGYIYPNNDGTGYNQKFKSRATLTVDNSTSTAYMELRSLRSDDTAVYYCARGDGNYVGDMDYWGQGTTVTVSS VL: DIQMTQSPSSLSASVGDRVTITCRASENIYSYLAWYQQKPGKAPKLLVYNAKTLAEGVPSRFSGSGSGTDFTLTISSLQPEDFATYYCQHHYATPFTFGQGTKLEIKR . 0
